Molecular target: Adrenergic receptor alpha-1 (Rattus norvegicus) (UniProt P15823+P23944+P43140)
Assay: Displacement of [3H]prazosin from alpha-1 adrenergic receptor in Sprague-Dawley rat cortical membranes at 1 uM
Format: cell membranes
Details: Membrane
experimental.readout: inhibition (%)

Guide cases for inhibition, answers given:
compound	inhibition [%]
COc1cccc2c1CC(N(CCCc1c[nH]c3ccc(F)cc13)C1CCC1)CO2 (racemic)	15
NC(=O)c1ccc(F)c2c1C[C@@H](NCCCc1c[nH]c3ccc(F)cc13)CO2	21
COc1cccc2c1CC(N(CCCc1c[nH]c3ccc(F)cc13)CC1CC1)CO2 (racemic)	44
NC(=O)c1ccc(F)c2c1C[C@H](N(CCCc1c[nH]c3ccc(F)cc13)CC1CC1)CO2	26
CN(CCCc1c[nH]c2ccc(F)cc12)[C@H]1COc2c(F)ccc(C(N)=O)c2C1	37
NC(=O)c1ccc(F)c2c1CC(N(CCCc1c[nH]c3ccc(F)cc13)C1CCC1)CO2 (racemic)	16
NC(=O)c1ccc(F)c2c1C[C@@H](N(CCCc1c[nH]c3ccc(F)cc13)C1CCC1)CO2	21

I: COc1cccc2c1C[C@@H](N(CCCc1c[nH]c3ccc(F)cc13)C1CCC1)CO2
II: CCCN(CCCc1c[nH]c2ccc(F)cc12)[C@@H]1COc2c(F)ccc(C(N)=O)c2C1
III: NC(=O)c1ccc(F)c2c1CC(N(CCCc1c[nH]c3ccc(F)cc13)CC1CC1)CO2 (racemic)
[Q] Sort the compounds on inhibition; start with the lowest figure. Use the labels to give the ranking in the order requested.
[A] I, III, II
(I: 15%, III: 32%, II: 46%)

---

pKi: −log10 of the molar value.
Parameter pKi, tested on Sodium-dependent serotonin transporter (Rattus norvegicus, UniProt P31652), listed per item.
Sequence (P31652 whole entry): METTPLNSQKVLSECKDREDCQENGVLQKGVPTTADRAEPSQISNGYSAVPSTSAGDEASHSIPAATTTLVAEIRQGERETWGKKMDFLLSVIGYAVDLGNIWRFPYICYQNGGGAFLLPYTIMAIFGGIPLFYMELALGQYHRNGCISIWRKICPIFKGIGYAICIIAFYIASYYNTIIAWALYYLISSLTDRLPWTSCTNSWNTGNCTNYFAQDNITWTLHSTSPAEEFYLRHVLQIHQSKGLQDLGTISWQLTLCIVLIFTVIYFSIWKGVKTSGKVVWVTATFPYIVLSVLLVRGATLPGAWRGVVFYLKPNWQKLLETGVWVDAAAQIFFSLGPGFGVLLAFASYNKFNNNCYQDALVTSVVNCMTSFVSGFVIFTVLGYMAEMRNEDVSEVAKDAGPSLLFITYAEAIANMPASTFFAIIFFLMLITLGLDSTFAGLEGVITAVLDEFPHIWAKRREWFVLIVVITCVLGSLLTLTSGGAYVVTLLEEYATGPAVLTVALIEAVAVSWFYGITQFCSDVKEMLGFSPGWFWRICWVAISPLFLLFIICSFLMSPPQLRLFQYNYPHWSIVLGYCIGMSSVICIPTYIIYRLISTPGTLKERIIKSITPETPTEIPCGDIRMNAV
experimental.readout: pKi

Guide cases for pKi, answers given:
compound	system.tested	pKi
CCCN(CCCc1c[nH]c2ccc(F)cc12)[C@H]1COc2c(F)ccc(C(N)=O)c2C1	Sodium-dependent serotonin transporter (Rattus norvegicus, UniProt P31652)	8.10
NC(=O)c1ccc(F)c2c1C[C@H](N(CCCc1c[nH]c3ccc(F)cc13)C1CCC1)CO2	Sodium-dependent serotonin transporter (Rattus norvegicus, UniProt P31652)	8.28

a: NC(=O)c1ccc(F)c2c1CC(N(CCCc1c[nH]c3ccc(F)cc13)CC1CC1)CO2 (racemic)
b: CCCN(CCCCc1c[nH]c2ccc(F)cc12)C1COc2c(F)ccc(C(N)=O)c2C1 (racemic)
[Q] Which value of pKi is numerically greater: that of a or that of b ? Field: selected label. Fill in the label of the entry you choose.
[A] a
(a: 8.46, b: 7.91)

---

Molecular target: Adrenergic receptor alpha-1 (Rattus norvegicus, UniProt P15823+P23944+P43140)
Assay: Displacement of [3H]prazosin from alpha-1 adrenergic receptor in Sprague-Dawley rat cortical membranes
Type: cell membranes, Membrane
experimental.readout: Ki (nM)

compound	Ki (nM)
CCN(CCCc1c[nH]c2ccc(F)cc12)[C@@H]1COc2c(F)ccc(C(N)=O)c2C1	545
CCN(CCc1c[nH]c2ccc(F)cc12)C1COc2c(F)ccc(C(N)=O)c2C1 (racemic)	416
CCN(CCCCc1c[nH]c2ccc(F)cc12)C1COc2c(F)ccc(C(N)=O)c2C1 (racemic)	328

1: CCN(CCCc1c[nH]c2ccc(F)cc12)C1COc2cccc(OC)c2C1 (racemic)
2: NC(=O)c1ccc(F)c2c1CC(N(CCc1c[nH]c3ccc(F)cc13)CC1CC1)CO2 (racemic)
[Q] Which value of Ki is numerically greater: that of 1 or that of 2 ? Field: selected label. Fill in the label of the entry you choose.
[A] 2
(2: 636 nM, 1: 207 nM)
